target: Vascular endothelial growth factor receptor 2 (Homo sapiens); experiment: Biochemical inhibition of phosphorylation of a poly-Glu/Tyr (4:1) peptide substrate by isolated vascular endothelial growth factor receptor 2 (cloned and expressed as a GST-fusion protein)
Sequence (P35968 whole entry, the tested form may be a part): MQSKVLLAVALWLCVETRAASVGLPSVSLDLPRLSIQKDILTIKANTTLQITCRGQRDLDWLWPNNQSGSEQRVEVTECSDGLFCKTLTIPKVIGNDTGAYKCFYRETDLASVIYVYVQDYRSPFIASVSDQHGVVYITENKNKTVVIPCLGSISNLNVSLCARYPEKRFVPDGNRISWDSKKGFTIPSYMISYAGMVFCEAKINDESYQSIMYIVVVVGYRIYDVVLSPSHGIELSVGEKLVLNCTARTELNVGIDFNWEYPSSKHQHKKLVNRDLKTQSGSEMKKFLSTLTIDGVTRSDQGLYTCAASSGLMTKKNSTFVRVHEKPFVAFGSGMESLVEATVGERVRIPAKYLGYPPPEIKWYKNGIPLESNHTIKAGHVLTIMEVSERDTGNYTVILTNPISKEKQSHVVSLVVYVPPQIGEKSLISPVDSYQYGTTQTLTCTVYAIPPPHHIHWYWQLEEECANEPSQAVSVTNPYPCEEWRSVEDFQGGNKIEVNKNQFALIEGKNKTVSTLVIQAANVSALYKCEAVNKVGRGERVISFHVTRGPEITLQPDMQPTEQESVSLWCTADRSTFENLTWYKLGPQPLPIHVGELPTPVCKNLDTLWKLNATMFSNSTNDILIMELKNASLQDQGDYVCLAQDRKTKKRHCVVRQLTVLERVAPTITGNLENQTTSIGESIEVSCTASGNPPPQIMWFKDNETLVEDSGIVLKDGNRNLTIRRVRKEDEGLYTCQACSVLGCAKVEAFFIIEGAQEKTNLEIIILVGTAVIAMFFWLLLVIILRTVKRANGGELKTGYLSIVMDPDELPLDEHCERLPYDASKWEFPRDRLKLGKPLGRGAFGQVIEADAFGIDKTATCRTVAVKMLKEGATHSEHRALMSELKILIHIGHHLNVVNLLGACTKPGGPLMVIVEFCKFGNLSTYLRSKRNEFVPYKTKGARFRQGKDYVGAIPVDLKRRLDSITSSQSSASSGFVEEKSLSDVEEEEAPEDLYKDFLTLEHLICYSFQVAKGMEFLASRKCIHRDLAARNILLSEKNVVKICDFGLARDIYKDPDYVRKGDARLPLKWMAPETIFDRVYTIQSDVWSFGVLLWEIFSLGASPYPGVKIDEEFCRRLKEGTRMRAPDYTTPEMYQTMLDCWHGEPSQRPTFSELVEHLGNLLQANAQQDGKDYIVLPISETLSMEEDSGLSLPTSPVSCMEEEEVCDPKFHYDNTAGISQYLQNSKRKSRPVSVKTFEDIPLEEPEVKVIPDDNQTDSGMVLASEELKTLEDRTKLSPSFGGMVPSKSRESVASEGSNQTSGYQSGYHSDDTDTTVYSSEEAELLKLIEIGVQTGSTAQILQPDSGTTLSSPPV
QUANTITY_MEASURED: pIC50
Give bare numbers, as −log10 of the molar value.

[in] Return reported pIC50; argument: Cc1cc(CO)cc(Nc2nccc(-n3ccnc3-c3ccccc3)n2)c1
[out] 8.05

###

experiment: Plasma clearance was determined; assay type: ADME, organism-based, Canis lupus familiaris; settings: dog
QUANTITY_MEASURED: clearance (mL/min/kg)
Answers are plain numbers, in mL/min/kg.

[in] Return reported clearance; argument: Cc1cc(C)cc(Nc2nccc(-n3ccnc3-c3ccccc3)n2)c1
[out] 30.1
